Target: GRIP2_7, Q9C0E4
Sequence (Q9C0E4 934-1023): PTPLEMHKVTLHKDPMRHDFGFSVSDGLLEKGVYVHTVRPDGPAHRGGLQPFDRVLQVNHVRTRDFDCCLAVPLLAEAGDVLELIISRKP
Experiment: holdup assay
Set-up: key: below the threshold = too weak to quantify, mostly under pKd 3.1 to 4
Conditions: plain residues with an end cap or a label only (N-terminal biotin on a linker: ado-ado)
readout.kind: pKd

>>> print(df.to_string())
                                   binder  readout_kind               result
0              FVHPILQSAV [PRKCA, P17252]           pKd  below the threshold
1  QKNKDKEYYV [NRXN3_rs746444206, Q9Y4C0]           pKd                  4.8
2            TETASVCTKV [SLC23A1, Q9UHI7]           pKd  below the threshold
3          GFGEERESIL [KIDINS220, Q9ULH0]           pKd  below the threshold
